Documented EC50_Fold change (Jurkat-NFAT-luciferase activation, normalized to ch40-C12-C10-E9) across a set of binders
# Assay system: human CD3 (human, UniProt P07766 23-207; P04234 22-171; P09693 23-182)
# Sequence (P07766 23-207, chain 1 of 3): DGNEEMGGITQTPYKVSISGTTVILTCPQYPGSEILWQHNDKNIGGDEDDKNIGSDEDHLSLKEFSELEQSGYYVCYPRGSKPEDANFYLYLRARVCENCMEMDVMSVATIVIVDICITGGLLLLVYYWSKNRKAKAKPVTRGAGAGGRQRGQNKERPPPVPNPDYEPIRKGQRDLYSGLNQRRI
# Sequence (P04234 22-171, chain 2 of 3): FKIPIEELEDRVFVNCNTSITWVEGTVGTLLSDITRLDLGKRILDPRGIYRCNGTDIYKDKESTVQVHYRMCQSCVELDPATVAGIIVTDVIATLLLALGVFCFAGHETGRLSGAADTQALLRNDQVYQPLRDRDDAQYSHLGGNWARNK
# Sequence (P09693 23-182, chain 3 of 3): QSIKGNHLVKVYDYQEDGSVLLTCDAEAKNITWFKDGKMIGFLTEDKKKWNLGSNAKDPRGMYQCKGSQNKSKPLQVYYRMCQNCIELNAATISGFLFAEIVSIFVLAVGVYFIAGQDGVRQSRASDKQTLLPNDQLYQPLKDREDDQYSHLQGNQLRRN
# Protocol summary: cell-based or functional assay
Enter your answer as a number in fold; do not include the unit.

Binder | Recorded number
hu40E9-L2H3-G106A.H (antibody, V domains shown) VH: EVQLVQSGAEVKKPGSSVKVSCKASGYTFSSYVIHWVRQAPGQGLEWMGYINPYNDVIKYNEKFKGRVTLTSDKSTSTAYMELSSLRSEDTAVYYCARDSYYSYDAFAYWGQGTLVTVSS VL: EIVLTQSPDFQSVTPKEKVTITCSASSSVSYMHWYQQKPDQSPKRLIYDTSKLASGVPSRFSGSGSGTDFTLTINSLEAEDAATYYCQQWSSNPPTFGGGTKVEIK | 4.95
hu40E9-L2H3-N93S.L (antibody, V domains shown) VH: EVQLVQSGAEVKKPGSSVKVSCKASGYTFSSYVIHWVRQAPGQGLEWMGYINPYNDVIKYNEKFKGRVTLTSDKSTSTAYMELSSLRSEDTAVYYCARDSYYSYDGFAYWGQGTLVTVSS VL: EIVLTQSPDFQSVTPKEKVTITCSASSSVSYMHWYQQKPDQSPKRLIYDTSKLASGVPSRFSGSGSGTDFTLTINSLEAEDAATYYCQQWSSSPPTFGGGTKVEIK | 0.74

# EC50_Fold change (Jurkat-NFAT-luciferase activation, normalized to ch40-C12-C10-E9) of hu40E9-L2H3-N93W.L (antibody, V domains shown) VH: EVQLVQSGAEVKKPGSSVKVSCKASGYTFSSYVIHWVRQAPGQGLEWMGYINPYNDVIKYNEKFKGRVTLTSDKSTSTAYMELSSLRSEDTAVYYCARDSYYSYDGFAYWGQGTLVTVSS VL: EIVLTQSPDFQSVTPKEKVTITCSASSSVSYMHWYQQKPDQSPKRLIYDTSKLASGVPSRFSGSGSGTDFTLTINSLEAEDAATYYCQQWSSWPPTFGGGTKVEIK = 0.72
